Provide the recorded log10 of IC50 for the entries that follow.
# System: GT-1a pRLuc H771b 75 S/I subgenomic replicon cell line
# measurementDescription: HCV GT-1a replicon luciferase reporter assay
# Assay type: cell-based
# runConditions: Hepatitis C virus, GT1A, 72 h, read-out: GT-1a (IC50) (nM)
Counter-ions that a name gives are not always drawn.
Please note: log10 values; quantity IC50; unit nM.

Exercise: If you can, please state the reported log10 of IC50 value of COC(=O)N[C@H]1CCc2cccc3c2N(C1=O)[C@H](c1ncc(-c2ccc(-c4ccc5cc(-c6cnc([C@@H]7CC(F)(F)CN7C(=O)[C@@H](NC(=O)OC)C(C)C)[nH]6)ccc5c4)cc2)[nH]1)C3 [Compound I-42] .
Solution: 0.07

Exercise: If you can, please state the reported log10 of IC50 value of COC(=O)N[C@H]1CCc2cccc3c2N(C1=O)[C@H](c1ncc(-c2ccc(-c4ccc(-c5cnc([C@@H]6CCCN6C(=O)[C@@H](NC(=O)OC)C(C)C)[nH]5)cn4)cc2)[nH]1)C3 [Compound I-34] .
Solution: 1.94

Exercise: If you can, please state the reported log10 of IC50 value of COCC[C@H](NC(=O)OC)C(=O)N1CCC[C@H]1c1ncc(-c2ccc(-c3ccc(-c4cnc([C@@H]5Cc6cccc7c6N5C(=O)[C@@H](NC(=O)OC)CC7)[nH]4)cc3)cc2)[nH]1 [Compound I-46] .
Solution: 0.47

Exercise: If you can, please state the reported log10 of IC50 value of COC(=O)N[C@H]1CCc2cccc3c2N(C1=O)[C@H](c1ncc(-c2ccc(-c4cnc5cc(-c6cnc([C@@H]7CCCN7C(=O)[C@@H](NC(=O)OC)C(C)(C)C)[nH]6)ccc5n4)cc2)[nH]1)C3 [Compound I-54] .
Solution: -0.02

Exercise: If you can, please state the reported log10 of IC50 value of COC(=O)N[C@H]1CCc2cccc3c2N(C1=O)[C@H](c1nc2ccc(-c4ccc(-c5ccc(-c6cnc([C@@H]7CC(F)(F)CN7C(=O)[C@@H](NC(=O)OC)C(C)C)[nH]6)cc5)nc4)cc2[nH]1)C3 [Compound I-13] .
Solution: 1.62

Exercise: If you can, please state the reported log10 of IC50 value of COC(=O)N[C@H]1CCc2cccc3c2N(C1=O)[C@H](c1ncc(-c2ccc(-c4ccc(-c5nnc([C@@H]6CCCN6C(=O)[C@H](NC(=O)OC)c6ccccc6)[nH]5)cc4)cc2)[nH]1)C3 [Compound I-60] .
Solution: 1.71

Exercise: If you can, please state the reported log10 of IC50 value of COC(=O)N[C@H]1CCc2cccc3c2N(C1=O)[C@H](c1ncc(-c2ccc4nc(-c5ccc(-c6cnc([C@@H]7CCCN7C(=O)[C@@H](NC(=O)OC)C(C)C)[nH]6)cc5)ccc4c2)[nH]1)C3 [Compound I-22, trifluoroacetic acid salt] .
Solution: 0.16

Exercise: If you can, please state the reported log10 of IC50 value of COC(=O)N[C@H]1CCc2cccc3c2N(C1=O)[C@H](c1ncc(-c2ccc4nc(-c5ccc(-c6cnc([C@@H]7CCCN7C(=O)[C@@H](NC(=O)OC)C(C)C)[nH]6)cc5)cnc4c2)[nH]1)C3 [Compound I-59] .
Solution: -0.15

Exercise: If you can, please state the reported log10 of IC50 value of COC(=O)N[C@H]1CCc2cccc3c2N(C1=O)[C@H](c1ncc(-c2ccc(-c4ccc5cc(-c6cnc([C@@H]7CCCN7C(=O)[C@@H](NC(=O)OC)C(C)C)[nH]6)ccc5c4)cc2)[nH]1)C3 [Compound I-31] .
Solution: 0.05
